# Test system: SK-MEL-5 melanoma
# protocol.notes: NCI-60 one-dose screen, 48 h (100 = growth as untreated, 0 = no growth, -100 = all killed)
# condition.details: 10 µM
This is part of a sample that, as a whole, favours compounds with a hit. Of some 83,000 tested, about 20% had one in any assay.

[
  {
    "molecule": "O=C(O)CCC(=O)OC(C1CO1)C(OC(=O)CCC(=O)O)C1CO1 (stereo not drawn)",
    "measurement.units": "%",
    "growth": 98.8
  },
  {
    "molecule": "COc1ccc(C(=O)C(Br)C(Br)C(=O)O)cc1 (stereo not drawn)",
    "measurement.units": "%",
    "growth": 101
  },
  {
    "molecule": "NNc1ccccc1C(=O)O",
    "measurement.units": "%",
    "growth": 103
  },
  {
    "molecule": "CC(=O)/C(Cc1ccccc1)=N/O",
    "measurement.units": "%",
    "growth": 106
  },
  {
    "molecule": "COc1ccc(-c2cc(-c3cc(-c4ccc(OC)cc4)nc(N)n3)nc(N)n2)cc1",
    "measurement.units": "%",
    "growth": 97.1
  },
  {
    "molecule": "CCNCCCCNCCCCNCCCCNCCCCNCC",
    "measurement.units": "%",
    "growth": 73.8
  },
  {
    "molecule": "CCOC(=O)CCCC(=O)OCC",
    "measurement.units": "%",
    "growth": 106
  },
  {
    "molecule": "COc1ccccc1NC(=O)C1=C(C)NC(C)=C(C(=O)Nc2ccccc2OC)C1c1cccc([N+](=O)[O-])c1",
    "measurement.units": "%",
    "growth": 61.5
  },
  {
    "molecule": "Cc1cc(/C=C/c2ccc3cc(N(C)C)ccc3[n+]2C)c(C)n1-c1ccccc1",
    "measurement.units": "%",
    "growth": -96.8
  },
  {
    "molecule": "Cc1ccc(C)n1-c1ccsc1C(=O)NNC(=O)CCl",
    "measurement.units": "%",
    "growth": 85.8
  },
  {
    "molecule": "Nc1ccc(CC(=O)O)c(N)c1",
    "measurement.units": "%",
    "growth": 99.2
  },
  {
    "molecule": "Cc1nc2ccccc2c(C(=O)O)c1O",
    "measurement.units": "%",
    "growth": 102
  },
  {
    "molecule": "c1ccc2c(c1)Sc1ccccc1S2",
    "measurement.units": "%",
    "growth": 101
  }
]

All figures here come from PubChem BioAssay (NCI).
